- System: HCT-15 colon
- protocol_notes: NCI tumour cell line growth inhibition, 48 h
quantity_kind: TGI

Worked cases, answers included:
1) C/C(=N\NC(=S)SCc1ccccc1)c1ccccn1 = 12.1 µM
2) CN(C)c1snc2c1c(=O)n(C)c(=O)n2C = > 100 µM
3) COc1ccc(NC(=O)C(C)Oc2ccc(OCC3CCCCC3)cc2)cc1 (stereo not drawn) = > 100 µM
4) O=C(O/N=C1/CCC/C1=C\c1ccccc1)c1ccc(Cl)c(Cl)c1 = > 100 µM
5) Cc1cc(-c2ccccn2)cc(C)c1/C=C/c1cncc(-c2nn[nH]n2)c1 = > 25 µM
6) CN(C)CCNc1c2ccccc2nc2oc3ccccc3c12 = 25 µM

I'm hoping you can list TGI for every compound here, please.
1. CN(C(=O)C1=CCC2(CC1)OCCO2)c1ccccc1I
2. O=C(NC(Cc1cnc[nH]1)C(=O)N1CCCC1)C1CCCC1 (stereo not drawn)
3. CCCCCCCCCC(=O)OCC1OC(n2cc(F)c(=O)[nH]c2=O)C(NC(=O)OCc2ccccc2)C(OC(=O)CCCCCCCCC)C1O (stereo not drawn)

["> 100 µM", "> 100 µM", "> 100 µM"]

I'm hoping you can list TGI for every compound here, please.
1. Cc1cn2c(/C=N/N=C(N)N)c(-c3ccccn3)nc2s1
2. ON[C@H]1C[C@@H](n2cnc3c(NC4CC4)ncnc32)[C@H](O)[C@@H]1O
3. CN1CCN(c2ccc(NC(=O)c3cncnc3Nc3ccc(OCc4ccccn4)c(Cl)c3)cc2)CC1
4. Cc1ccc(C2COc3cc(O)c(O)cc3C2)cc1 (stereo not drawn)

["39.1 µM", "> 100 µM", "3.19 µM", "31.8 µM"]

----------
- Test system: UACC-257 melanoma
- protocol_notes: NCI tumour cell line growth inhibition, 48 h
Decide by TGI: equal to or exceeding 50 µM means t, less means f.

Here are 3 compounds together with their reported answers.
1) CC1(C)NCCC[C@]2(C)[C@H]3CC[C@@H]4[C@H]5[C@H](C(=O)/C=C/c6ccccn6)CC[C@]5(CO)CC[C@@]4(C)[C@]3(C)CC[C@@H]12 = f
2) O=C1C2CCN(CC2)C1(CO)CO = f
3) Cc1cc2c(C(N)=O)c(N)n(-c3c(C)ccc(O)c3C)c2nc1C = t

Check if TGI >= 50 µM (inclusive). Item: CCCN(CCC)c1ccc(/C=N/NC(=O)c2cccnc2)c(OC)c1
t

----------
- Test system: A498 renal
- protocol_notes: NCI tumour cell line growth inhibition, 48 h; in the data active means GI50 below about 0.43 µM; inactive means the rest
Where a SMILES comes first, the peptide text is derived from it. [ ]: non-standard residue; d: D form. The star is where a group is joined. dTle = CC(C)(C)[C@@H](N)C(=O)O; 4Abz = Nc1ccc(C(=O)O)cc1; NHOH = ON*
Give your call using only these classes: TRUE = active, FALSE = inactive

1) CO/N=C(\COc1ccc2oc(-c3ccccc3)cc(=O)c2c1)c1ccc(OC)cc1 = FALSE
2) NS(=O)(=O)c1ccc(N(/C=C/C(=O)C(F)(F)F)Cc2ccc(Cl)cc2)cc1 = FALSE
3) O=C(NO)[C@@H](Cc1ccccc1)NS(=O)(=O)c1ccc(-c2ccccc2)cc1 = FALSE
4) Clc1ccccc1CNc1c2ccccc2nc2ccccc12 = FALSE
5) C/C(O)=C(\C#N)C(=O)Nc1ccc(C(F)(F)F)cc1 = FALSE

Tell me the assay call for C[C@@H](NC(=O)[C@H](NC(=O)[C@@H]1CCCN1C(=O)CNC(=O)c1ccc(N)cc1)C(C)(C)C)C(=O)NO (H-[4Abz]GP[dTle][dA]-{NHOH}) please.
FALSE

Tell me the assay call for CN(CC(=O)Nc1nc2ccccc2[nH]1)S(=O)(=O)c1ccc(Cl)cc1 please.
FALSE

Tell me the assay call for CC(=O)[CH-]C(=O)c1ccccc1.CC(=O)[CH-]C(=O)c1ccccc1.Cc1cc([O-])ccc1Cl.Cc1cc([O-])ccc1Cl.[Ti+4] please.
FALSE

Tell me the assay call for COC(=O)c1cc2c3ccccc3[nH]c2c2sccc12 please.
FALSE

Tell me the assay call for CCn1c(-c2nonc2N)nc2c(C#CC(C)(C)O)ncc(OC[C@H]3CCCNC3)c21 please.
TRUE

Tell me the assay call for O=C(Nc1cccc(-c2ccc(Cl)c(C(F)(F)F)c2)c1)C1CCN(Cc2cccc3cccnc23)CC1 please.
FALSE

Tell me the assay call for Cc1cc2c(C(N)=O)c(N)n(-c3c(C)ccc(O)c3C)c2nc1C please.
FALSE

Tell me the assay call for Cc1ccc(NC(=O)CSc2nnc3n(Cc4ccccc4)c(=O)c4c(C)c(C(N)=O)sc4n23)cc1 please.
FALSE

Tell me the assay call for NS(=O)(=O)CC1CC[CH-]CC1.[Cl-].[Cl-].[Cl-].[Cl-].[Cl-].[Sb+5].c1ccncc1 please.
FALSE
